# Test system: B16F10-Cas9 cells pulsed with SIINFEKL peptide, co-cultured with OT-I T cells
# METHOD DESCRIPTION: Genome-scale CRISPR-Cas9 screen, selection with OT-I T cells
# Type: cell-based, mouse
# TEST PARAMETERS: Table 3; B16F10-Cas9 cells pulsed with SIINFEKL, co-cultured with OT-I T cells 1:1 for one day; negative = depleted, positive = enriched
Listed next: entries and their corresponding OT1 (sgRNA Log(2) fold change, OT-I selection versus control T cells).
Form: value (number only, do not type unit).

ACTTCTGATTGGCGATTCTG (chemistry not fully specified)    -3.78
TATACCAATACGCAAATACC (chemistry not fully specified)    4.07
ATTTCAAGAGATTCTATGCT (chemistry not fully specified)    -2.59
CTCAGCTGGATACAACCAGG (chemistry not fully specified)    -2.27

Next sequence, please.
In: Give recorded OT1 (sgRNA Log(2) fold change, OT-I selection versus control T cells) with B16F10-Cas9 cells pulsed with SIINFEKL peptide, co-cultured with OT-I T cells for the following sequence: AGATTGTCAACAATGGAACT (chemistry not fully specified)
Out: -2.17
